Just for reference, paper PMC8185074 is where these values come from.

Biological target: HDAC2 (Homo sapiens)
Construct: purchased Reaction Biology Corporation (assay run by the CRO)
Sequence (Q92769 whole entry): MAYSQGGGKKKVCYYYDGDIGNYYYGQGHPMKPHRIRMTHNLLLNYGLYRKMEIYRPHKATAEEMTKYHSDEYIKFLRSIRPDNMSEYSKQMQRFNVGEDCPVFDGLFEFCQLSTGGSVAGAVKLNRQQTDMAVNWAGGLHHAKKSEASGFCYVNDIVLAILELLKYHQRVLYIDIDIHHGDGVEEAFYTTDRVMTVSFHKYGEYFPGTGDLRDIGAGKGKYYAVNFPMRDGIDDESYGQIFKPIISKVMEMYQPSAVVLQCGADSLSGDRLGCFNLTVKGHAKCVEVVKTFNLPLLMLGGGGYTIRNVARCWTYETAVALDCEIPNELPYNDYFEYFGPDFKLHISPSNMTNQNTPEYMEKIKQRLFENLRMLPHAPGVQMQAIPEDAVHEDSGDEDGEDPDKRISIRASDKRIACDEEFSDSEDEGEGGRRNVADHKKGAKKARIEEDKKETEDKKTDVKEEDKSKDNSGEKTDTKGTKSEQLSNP
Test: HDAC2 inhibition, full IC50 measurement (Reaction Biology; fluorogenic p53 peptide RHKK(Ac)AMC)
Format: biochemical
Conditions: Conc. 3.33E-06 M, t2
Description: The assay was performed using 50 μM fluorogenic peptide from p53 residues 379-382 [RHKK(Ac)AMC] in a base reaction buffer of 50 mM Tris-HCl at pH 8.0, 137 mM NaCl, 2.7 mM KCl, 1 mM MgCl2, and freshly added 1 mg/ml BSA and 1% DMSO. […] Peptide concentrations were calculated based on mass of lyophilized peptide and its molecular weight. […]
Peptide text beside a SMILES is read from it.
Provide the recorded HDAC2 activity raw data (signal) for the entries that follow.
Write the number on its own, no unit after it.

Give its HDAC2 activity raw data (signal) value. Item: CCCC[C@H]1NC(=O)[C@H](CC(=O)O)NC(=O)[C@@H](CO)NC(=O)[C@@H](C)NC(=O)[C@H](CCCCN)NC(=O)[C@@H](CCCCN)NC(=O)[C@H](Cc2ccccc2)NC(=O)[C@H](CCCCCS)NC1=O [des4.3.1.2, SHA-Phe-dLys-Lys-dAla-dSer-Asp-dNle] (HELM PEPTIDE1{D.[CCCC[C@@H](N[*:1])C(=O)[*:2]].[O=C([C@H](CCCCCS)N[*:1])[*:2]].F.[dK].K.[dA].[dS]}$PEPTIDE1,PEPTIDE1,1:R1-8:R2$$$V2.0)
1397108

Give its HDAC2 activity raw data (signal) value. Item: CCCC[C@H]1NC(=O)[C@H](Cc2ccccc2)NC(=O)[C@H](CCCCCS)NC(=O)[C@@H](CO)NC(=O)[C@H](CC(=O)O)NC(=O)[C@@H](CO)NC(=O)[C@@H](C)NC(=O)[C@H](CCCCN)NC1=O [des4.3.1.1, SHA-Phe-dNle-Lys-dAla-dSer-Asp-dSer] (HELM PEPTIDE1{D.[dS].[O=C([C@H](CCCCCS)N[*:1])[*:2]].F.[CCCC[C@@H](N[*:1])C(=O)[*:2]].K.[dA].[dS]}$PEPTIDE1,PEPTIDE1,1:R1-8:R2$$$V2.0)
1725891

Give its HDAC2 activity raw data (signal) value. Item: CSCC[C@H]1NC(=O)[C@@H](CO)NC(=O)[C@H](CC(N)=O)NC(=O)[C@H](CC(=O)O)NC(=O)[C@@H]([C@H](C)O)NC(=O)[C@H](Cc2c[nH]c3ccccc23)NC(=O)[C@H](CCCCCS)NC(=O)[C@H](CCCCN)NC(=O)[C@@H](CC(=O)O)NC1=O [des2.1.1, SHA-Trp-dThr-Asp-Asn-dSer-dMet-dAsp-Lys] (HELM PEPTIDE1{D.N.[dS].[dM].[dD].K.[O=C([C@H](CCCCCS)N[*:1])[*:2]].W.[dT]}$PEPTIDE1,PEPTIDE1,1:R1-9:R2$$$V2.0)
13124

Give its HDAC2 activity raw data (signal) value. Item: N=C(N)NCCC[C@H]1NC(=O)[C@@H]2CCCN2C(=O)[C@H](CO)NC(=O)[C@@H](Cc2c[nH]cn2)NC(=O)[C@H](CCCCCS)NC(=O)[C@H](CCCCN)NC(=O)[C@H](Cc2ccc(O)cc2)NC(=O)[C@H]2CCCN2C(=O)[C@@H](CCC(N)=O)NC1=O [des3.1.0, SHA-dHis-Ser-Pro-dArg-dGln-dPro-Tyr-Lys] (HELM PEPTIDE1{K.[O=C([C@H](CCCCCS)N[*:1])[*:2]].[dH].S.P.[dR].[dQ].[dP].Y}$PEPTIDE1,PEPTIDE1,1:R1-9:R2$$$V2.0)
176595

Give its HDAC2 activity raw data (signal) value. Item: CC(C)[C@@H]1NC(=O)[C@H](CCCNC(=N)N)NC(=O)[C@@H](CC(=O)O)NC(=O)[C@H](CO)NC(=O)[C@@H](CO)NC(=O)[C@@H](CCC(=O)O)NC(=O)[C@H](Cc2ccc(O)cc2)NC(=O)[C@H](CCCCCS)NC1=O [des4.2.0, SHA-Tyr-dGlu-dSer-Ser-dAsp-Arg-Val] (HELM PEPTIDE1{R.V.[O=C([C@H](CCCCCS)N[*:1])[*:2]].Y.[dE].[dS].S.[dD]}$PEPTIDE1,PEPTIDE1,1:R1-8:R2$$$V2.0)
205670
